# literature pull: MAGL (Homo sapiens) log10 of IC50
# Sequence (Q99685 whole entry, species assumed): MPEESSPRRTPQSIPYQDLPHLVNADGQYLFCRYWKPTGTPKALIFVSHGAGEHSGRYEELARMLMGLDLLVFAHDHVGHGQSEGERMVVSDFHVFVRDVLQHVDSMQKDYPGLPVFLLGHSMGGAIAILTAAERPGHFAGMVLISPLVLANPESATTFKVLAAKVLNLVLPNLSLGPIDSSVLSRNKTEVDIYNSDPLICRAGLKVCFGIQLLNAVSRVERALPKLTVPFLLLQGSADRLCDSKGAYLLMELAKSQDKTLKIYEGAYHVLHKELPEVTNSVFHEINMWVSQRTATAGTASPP
quantity_name: log10 of IC50 (log10 of the value in nM)

compound_structure=O=C1CO[C@H]2CCN(C(=O)N3CCC(Oc4ccc(Cl)cc4)CC3)C[C@H]2N1 val=1.90
compound_structure=O=C1CO[C@H]2CCN(C(=O)N3CCC(N4CC5(CC5)c5cc(Cl)ccc54)CC3)C[C@H]2N1 val=1.76
compound_structure=Cc1[nH]ncc1-c1cccc(C(=O)N2CCN3C[C@@H](c4ccc(F)c(Cl)c4)OC[C@@H]3C2)c1Cl val=1.03
compound_structure=Cc1ccc2oc(N3CCN(C(=O)c4cnc(-c5cnn(CC(C)(C)C)c5)c(C(F)(F)F)c4)CC3)nc2n1 val=1.04
compound_structure=CC1(F)CN(c2ccc(C3CN(C(=O)N4CC[C@@H]5OCC(=O)N[C@@H]5C4)C3)cc2)C1 val=1.15
compound_structure=O=C1CC[C@H](COC(=O)N2CC(OCc3ccc(C(F)(F)F)cc3F)C2)N1 val=2.96
compound_structure=O=C(c1ccc(-c2ccccc2)cc1)N1CCN(C2CN(C(=O)c3cc[nH]c3)C2)CC1 val=3.49
compound_structure=Cc1nc2cc(C(=O)N3CC(N4CCN(C(=O)c5nccs5)CC4)C3)ccc2n1CCC(F)(F)F val=2.96
compound_structure=Cn1nc(-c2ccccc2)c2cc(C(=O)N3CC(N[C@H]4CCN(C(=O)c5ccccc5)C4)C3)ccc21 val=2.30
compound_structure=O=C(c1ccc2c(ccn2-c2cncnc2)c1)N1CC(N2CCN(C(=O)c3nccs3)CC2)C1 val=2.99
compound_structure=COc1ccc2c(C)c(C(=O)N3CC(N4CCN(C(=O)c5cscn5)CC4)C3)oc2c1 val=3.86
compound_structure=O=C(c1ccc2c(ccn2Cc2cccnc2)c1)N1CC(N2CCN(C(=O)c3nccs3)CC2)C1 val=2.84
compound_structure=Cc1c(COC2CN(C(=O)N3CC[C@@H]4OCC(=O)N[C@@H]4C3)C2)cccc1C(F)(F)F val=0.90
compound_structure=O=C1N[C@H](CCC(=O)N2CC3(CCC(NS(=O)(=O)c4cccc(OC(F)(F)F)c4)CC3)C2)CO1 val=1.79
